Each recorded value in this set is attributed to the supplement of paper PMC10981050.

// reported cell viability for each item listed
System: MOLM14
Test: cell viability relative to vehicle control; higher = less cytotoxic;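 note: after 48 h exposure read by CellTiter-Glo luminescence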
Conditions: 10 µM; SRSF2 genotype: SRSF2 P95H/wt
Where a name gives a salt, the structure may show the parent alone.
OUTCOME MEASURE: cell viability (%)

>>> reported_measurement("O=C1CC(c2ccc(O)cc2)Oc2cc(O)ccc21 (centres undefined)")
99.8
>>> reported_measurement("CC[C@@H](N)CNc1ccnc(-c2cc(-c3cnn(C)c3)ccc2O)n1")
0.8
>>> reported_measurement("COc1cc2c(cc1OC)[C@H]1[C@@H](C)c3ccc(OC)c(OC)c3CN1CC2")
89.4
>>> reported_measurement("CC1(C)S[C@@H]2[C@H](NC(=O)[C@H](NC(=O)N3CCNC3=O)c3ccccc3)C(=O)N2[C@H]1C(=O)O [Azlocillin sodium salt]")
86.4

---

// reported cell viability for each item listed
Tested on: K562
Assay: cell viability relative to vehicle control; higher = less cytotoxic
Conditions: 10 µM; SRSF2 genotype: SRSF2 wt/wt
Structures can show the parent of a compound that is named as a salt.
OUTCOME MEASURE: cell viability (%)

>>> reported_measurement("CN(CCOc1ccc(CC2SC(=O)NC2=O)cc1)c1ccccn1 (stereo not drawn) [Rosiglitazone maleate]")
96
>>> reported_measurement("COc1ccccc1OCC(O)COC(N)=O (stereo not drawn) [Methocarbamol (Robaxin)]")
107
>>> reported_measurement("O=C(O)c1cc(C(=O)O)c2c(n1)C(=O)C(=O)c1cc(C(=O)O)[nH]c1-2 [Pyrroloquinoline Quinone Disodium Salt]")
98.9
>>> reported_measurement("CNCCCC12CCC(c3ccccc31)c1ccccc12 [Maprotiline hydrochloride]")
71.2
>>> reported_measurement("N=C1CCCN1Cc1[nH]c(=O)[nH]c(=O)c1Cl [Tipiracil hydrochloride]")
104
>>> reported_measurement("Cc1cc(C)c(CN2CCc3c(Cl)cc(-c4c(C)noc4C)c(Cl)c3C2=O)c(=O)[nH]1")
87.5
>>> reported_measurement("C=C1CCN([C@H](C)[C@](O)(Cn2cncn2)c2ccc(F)cc2F)CC1 [Efinaconazole]")
96.9
>>> reported_measurement("CCOC(=O)c1cnc2ccc(-c3cncc(NS(=O)(=O)c4ccccc4)c3)cn12")
34.2

---

Tested on: MARIMO
Test: cell viability relative to vehicle control; higher = less cytotoxic
Conditions: 10 µM; SRSF2 genotype: SRSF2 wt/wt
OUTCOME MEASURE: cell viability (%)

>>> reported_measurement("Cc1cc(F)c(Nc2ncnc3cc(OCc4ccccc4)ccc23)cc1O")
97.9
>>> reported_measurement("C#Cc1cccc(Nc2ncnc3cc(OC)c(OCCCCCCC(=O)NO)cc23)c1")
8.09
>>> reported_measurement("CC(C)N(CCCNC(=O)Nc1ccc(C(C)(C)C)cc1)C[C@H]1O[C@@H](n2ccc3c(N)ncnc32)[C@H](O)[C@@H]1O")
96.9
>>> reported_measurement("O=C(c1ccccc1)c1ccc2nc(NC(=O)c3csc(C4CCN(c5ncnc6ccsc56)CC4)n3)[nH]c2c1")
37.5
>>> reported_measurement("O=C(O[C@@H]1O[C@@H]2COC(=O)c3cc(O)c(O)c(O)c3-c3c(cc(O)c(O)c3O)C(=O)O[C@H]([C@H]1O)[C@@H]2O)c1cc(O)c(O)c(O)c1")
81.3
>>> reported_measurement("CC(=O)Oc1ccc2c(c1)Oc1cc(OC(C)=O)ccc1C21OC(=O)c2cc(C(=O)ON3C(=O)CCC3=O)ccc21.CC(=O)Oc1ccc2c(c1)Oc1cc(OC(C)=O)ccc1C21OC(=O)c2ccc(C(=O)ON3C(=O)CCC3=O)cc21")
77.4
>>> reported_measurement("CCCN(CCc1cccs1)[C@H]1CCc2c(O)cccc2C1")
105
>>> reported_measurement("COC1=C(OC)C(=O)C(CCCCCCCCCCO)=C(C)C1=O")
89.6
